Molecular target: T1, histidine-tagged human Siglec-7 (NovoProtein) (human, UniProt Q9Y286 19-353)
T1 construct: Bought protein; also called recombinant human Siglec-7; recombinant Siglec-7; not shown: histidine tag
T1 sequence (Q9Y286 19-353 limits assumed): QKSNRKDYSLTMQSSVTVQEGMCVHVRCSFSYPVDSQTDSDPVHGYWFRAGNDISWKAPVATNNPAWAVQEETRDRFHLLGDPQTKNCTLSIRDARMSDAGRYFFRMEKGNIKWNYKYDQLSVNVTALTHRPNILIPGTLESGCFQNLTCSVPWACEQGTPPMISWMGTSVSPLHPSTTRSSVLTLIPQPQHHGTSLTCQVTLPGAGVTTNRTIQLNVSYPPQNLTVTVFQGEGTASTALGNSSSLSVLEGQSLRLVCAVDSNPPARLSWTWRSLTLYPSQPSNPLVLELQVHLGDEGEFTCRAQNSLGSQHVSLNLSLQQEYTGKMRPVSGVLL
Experiment: BLI, antibody captured
In this section, each of the binders is paired with its reported koff.

Binder	koff, s⁻¹
S7AB-H8.45 (antibody, V domains shown) VH: QVQLVQSGAEVKKPGASVKVSCKASGYAFTEAWMNWVRQAPGQGLEWIGRIFPGYGHTNYAQKFQGRATLTEDTSTSTAYMELSSLRSEDTAVYYCARDYSDYYFDYWGQGTLVTVSS VL: DIQMTQSPSSLSASVGDRVTITCRGSQDINTYLNWYQQKPGKAPKLLIYYTSRLHSGVPSRFSGSGSGTDYTLTISSLQPEDFATYYCQQGNILPWTFGQGTKLEIK	7.55e-05
S7AB-H8.33 (antibody, V domains shown) VH: QVQLVQSGAEVKKPGASVKVSCKASGYAFTGYWMNWVRQAPGQGLEWIGRIFPGLGHTNYAQKFQGRATLTEDTSTSTAYMELSSLRSEDTAVYYCARDYSDYYFDYWGQGTLVTVSS VL: DIQMTQSPSSLSASVGDRVTITCRGSQDINTYLNWYQQKPGKAPKLLIYYTSRLHSGVPSRFSGSGSGTDYTLTISSLQPEDFATYYCQQGGTLPWTFGQGTKLEIK	7.64e-05
